# ASSAY_EXPLANATION: yeast display, Sf9 membrane polyspecificity reagent, FACS + sequencing; frameworks hold sequencing errors
MEASURE_NAME: polyreactivity (PSR sort gate)

Examples with their reported polyreactivity (PSR sort gate) follow.
| MONOMER_SEQUENCE | polyreactivity (PSR sort gate) |
| --- | --- |
| QVQLVESGGGLVQAGGSLRLSCAASGLIFNTYAMGWYRQAPGKDRELVAAITDGGGTNYADSVKGRFTISRDNAKNTVYLQMNSLKPEDTAVYYCAARLASWPLTYDFQWYEYWGQGTQVTVSS | low polyreactivity |
| QVQLVESGGGLVQAGGSLRLSCAASGIIFPRYMGWYRQEPGKERELVAAIRWSSDDTNYADSVKGRFTISRDNAKNTVYLQMNSLKPEDSAVYYCAKDSLYGVPFDVDYWGQGTQVTVSS | low polyreactivity |
| QVQLVESGGGLVQAGGSLRLSCAASGRTSYYAMGWYRQAPGKERELVAAINSGDSTTYADSVKGRFTISRDNAKNNVYLQMNSLKPEDTAVYYCATALYDWYSLEFDYWGQGTQVTVSS | low polyreactivity |
| QVQHVESGGGLVQAGGSLRLSCAASGFIFTSYAMGWYRQAPGKERELVAVISASDGSTYYADSVKGRFTISRDNAKNTVYLQMNILKPEDTAVYYCNATEYLGGGGIVHVEFGYWGQGTQVTVSS | low polyreactivity |
| QVQLVESGGGLVQAGGSLRLSCAASGRTLLPNAMGWYRPAPGKERELVADISTSDGSTRYADSVKGRFTISRDNAKNTVYLQMNSLKPEDTAVYYCAAGSEYYSYGGVRFSFYYWGQGTQVTVSS | low polyreactivity |
| QVQLVESRGGLVQAGGSLRLSCAASGLIFTVNAMGWYRQAPGKERELVAAISQSGGSTYYADSVKGRFTISRDNAKNTVYLQMNSLKPEDTAVYYCAAKSDPYRHDYWGQGTQVTVSS | low polyreactivity |
| QVQLVESGGGLVQAGGSLRLSCAASGYTDYAMGWYRQAPGKERELVATITSGDNTNYADSVKGRFTISRDNAKNTVYLQMNSPQPEDTAVYYCAADRIGRYRPYIGYWGQGTQVTVSS | low polyreactivity |
| QVQLVESGGGLVQAGGSLRLSCAASGRTFVFNTMGWYRQAPGKERELVADISRGDSTNYADSVKGRFTISRDNAKNTVYLQMNSLKPEDTAVYYCAAKWRWSGSILYRYGYGYWGQGTQVTVSS | high polyreactivity |
| QVQLVESGGGLVQAGGSLRLSCAASGITIGRYAMGWYRQAPGKERELVAAISWSGGSTYYADSVKGRFTISRDNAKNTVYLQMNSLKPEDTAVYYCNKLRRYSEYNADDGDYWGQGTQVTVSS | high polyreactivity |
| QVKLVESGGGIVQAGGSLRLSCAASGIIFARNAMGCYRQAPGKERELVAGINGGRKNYADSVKGSFTISRDNAKNTVYLQMNSLKPEDSAVYYCAARNKGTLYRYGYWGQGTQVTVSS | high polyreactivity |

[ask] If you can, please state the reported polyreactivity (PSR sort gate) value of QVQLVESGGGLVQAGGSLRLSCAASGIIFSLKTMGGYRQAPGKERELVAAISSSGGSTYYADSVKGRFTISRDNAKNCVYVQMNSLKPEDTAVYYCARRYAPNTSLTFYYWGQGTQVTVSS .
[reply] low polyreactivity

###

# ASSAY_EXPLANATION: yeast display, Sf9 membrane polyspecificity reagent, FACS + sequencing; frameworks hold sequencing errors
MEASURE_NAME: polyreactivity (PSR sort gate)

Examples with their reported polyreactivity (PSR sort gate) follow.
| MONOMER_SEQUENCE | polyreactivity (PSR sort gate) |
| --- | --- |
| QVQLVESGGGLVQAGGSLRLSCAASGRIFPPYAMGWYRQAPGKERELVAAISSSTTSTYYADSVKGRFTISRDNAKNTVYLQMNSLKPEDTGVYYCAAQPYRAAFPYSSRRHLQYEYWGQGTQVTVSS | low polyreactivity |
| QVQLQESGGGLVQAGGSLRLRCAASGYISAGRQMGWYRQGPGKEREFVATINGGATTNYADSVKGRFTISRDNAKNSVYLQMNSLKPEDTAVYYCAVRTYIYDIHRYWGQGTQVTVSS | high polyreactivity |
| QVQLVESGGGLVQAGGSLRLSCAASGSIFRDYVMGWYRQAPGKERELVAAISGNDGSTYYADSVKGRFTISRDNAKNTVYLQLNSLKPEDTAVYYCNADEASTFPQFYSYLDFDYWGQGTQVTVSS | low polyreactivity |
| QVQLVESGGGLVHAGGSLRLSCAASGNTFIRYAIGWYRQARGTQRELVASITKRCGSTYYADSVKGRFTISRDNAKNTVYLQMNCLKPEDTAVYYCDRGPSGTPIGNTPYGDNRYNSWGEGTQVTVSS | low polyreactivity |
| QVQLVESGGGLVQAGGSLRLICAASGFILKYNAMGWYRQAPGKERELVAAISSNGGRTYYADSVKGRFTISRDNAMNTVYLQMNSLKPVDTAVYYCAAGRLQPVLGGYWGQGTQVTVSS | low polyreactivity |

[ask] If you can, please state the reported polyreactivity (PSR sort gate) value of QVQLVESGGCLDQAGGSLRLSSAASGRIFFGYAMGWYRQAPGKEREFVAAISSVGSTNYADSVKGRFTISRDNAKNTVYLQMNSLKPEDTAVYYCAAAPRSGGKYGSDGGDYWGQGTQVTVSS .
[reply] low polyreactivity

[ask] If you can, please state the reported polyreactivity (PSR sort gate) value of QDQLVESGGGLDQAGGSLRLSCAASGGTFKVNAMGWYRQAPGKEREFVAAISSGGSTYYADSVKGRFTISRDNAKNTVYLQINSLKPEDTAVYYFAASGAYDEAYGEAFYYWGQGTQVIVSS .
[reply] low polyreactivity

[ask] If you can, please state the reported polyreactivity (PSR sort gate) value of QVQLLESGGGLVQAGGSLRLSCAASGSTFYYYAMGWYRQAPGKERELVAAITSGGRTYYADSQKGRFTNSRDNAKNTVYLQMNSLKPEDTAVYYSNKRWTIWGYDYWAQGTQVTVSS .
[reply] high polyreactivity

[ask] If you can, please state the reported polyreactivity (PSR sort gate) value of QVQLVDSGGGLVQAGGSLSLSCAASGRIFTHYSMGWYRQATGKERELVAGMSQGGGSTYYADSVKGRFTISRDNAKNTVYLQMNSLKPEDTAVYYCAKTYDYVDYDYWGQGTQVTVSS .
[reply] low polyreactivity

[ask] If you can, please state the reported polyreactivity (PSR sort gate) value of QVQLVESGGGLVQAGGSLRLSCAASGSIFGVNDMGWYRQAPGKERELVAGISSSGGSTYDADSVMGRFTISRDNAKNTVYLQMNSLKPEDTAVYYCAARKLYRPRGRRVGYWGQGTQVTVSS .
[reply] low polyreactivity

[ask] If you can, please state the reported polyreactivity (PSR sort gate) value of QVQLVESGGGLVQAGGSLRLSCAASGSILRLYVMGWYRQAPGKERELVADISDRGGSTYYADSVKGRFTISRDNAKNTVYLQMNSLKPEDTAVYYCAAEWGQSGGGGYYYWGQGTQVTVSS .
[reply] low polyreactivity

###

# ASSAY_EXPLANATION: yeast display, Sf9 membrane polyspecificity reagent, FACS + sequencing; frameworks hold sequencing errors
MEASURE_NAME: polyreactivity (PSR sort gate)

| MONOMER_SEQUENCE | TEST_VALUE |
| --- | --- |
| QVQLVESGGGLVQAGGSLRLSCAASGSNFGPYAMGWSRPAPGKEMELVASITWTGGRTYYADSVKGRFTISLDNAKNTVYLQMNSLKPEDTAVYYCAADYSPSTWYLYYTLYYYWGQGTQVTVSS | low polyreactivity |
| QVQLVESGGGLVQAGGSLRLSCAASGSTFKNNAMGWYRQAPGKEREFVASISKRGGSTYYADSVKGRFTISRDNAKNTVYLQMNSLKPEDTAVYYCGKTYWSYGWSHGDYGEFDYWGQGSQVTVSS | high polyreactivity |
| QVQLVESGGGLVQAGGSLRLSCAPSGITFRVNAMGWYRQAPGKERELVASISRSGGSTYYADSVKGRFTISRDHAKNNVYLQMKSLKPEDTAVYYCADAQKVLFYGRWFDYWGQCTQVTVSS | low polyreactivity |
| QVQLVESGGGLVQAGGSLRLSCAASGSTLVANAMGWYRQAPGKERELVARITSGTSTYYADSVKGRFTISRDNAKNTVYLQMNSLKPEDTAVYYCAAGRWTRRRTYDSWGQGTQVTVSS | high polyreactivity |

[ask] If you can, please state the reported polyreactivity (PSR sort gate) value of QVELVVSGGGLVQAGGSLRLSCAAYGSIFLGNAMGWYRQAPGKEREFVAGIRGSAGTTSYADSVKGRFTISRDNAKNPGYLQMNSLKPEDTAVYYCAARPRHSDGYYYWGQGTEVTVSS .
[reply] high polyreactivity
